All values here come from patent US8415312B2.

System: human blood erythrocytes
Experimental Protocol: In vitro toxicity study, haemolysis (Table 10)
Format: cell-based
Experimental Context: 2 μg/mL
Property Name: Haemolysis of human blood erythrocytes, MEAN ± SE (%)

INSERT INTO measurements (compound, system_tested, measured) VALUES
  ('C[C@@H]1[C@H](O)[C@@H](C)/C=C/C=C/C=C/C=C/C=C/C=C/C=C/[C@H](O[C@@H]2O[C@H](C)[C@@H](O)[C@H](N)[C@@H]2O)C[C@@H]2O[C@](O)(C[C@@H](O)C[C@@H](O)[C@H](O)CC[C@@H](O)C[C@@H](O)CC(=O)O[C@H]1C)C[C@H](O)[C@H]2C(=O)O [Amphotericin B, reference compound]', 'human blood erythrocytes', 6.1),
  ('COC(=O)C(CO)NC(=O)C1C(O)CC2(O)CC(O)C(O)CCC(O)CC(O)CC(O)CC(=O)OC(C)C(C)C(O)C(C)C=CC=CC=CC=CC=CC=CC=CC(OC3OC(C)C(O)C(N)C3O)CC1O2 (mixture of isomers) [Compound 14]', 'human blood erythrocytes', 2.5),
  ('COC(=O)C(CO)NC(=O)C1C(O)CC2(O)CC(O)C(O)CCC(O)CC(O)CC(O)CC(=O)OC(C)C(C)C(O)C(C)C=CC=CC=CC=CC=CC=CC=CC(OC3OC(C)C(O)C(N)C3O)CC1O2 (stereo not shown) [Compound 13]', 'human blood erythrocytes', 3.7),
  ('CC1C=CC=CC=CC=CC=CC=CC=CC(OC2OC(C)C(O)C(N)C2O)CC2OC(O)(CC(O)C(O)CCC(O)CC(O)CC(O)CC(=O)OC(C)C(C)C1O)CC(O)C2C(=O)NC1C(O)OC(CO)C(O)C1O (stereo not shown)', 'human blood erythrocytes', 2.4);

* * *

Recorded measurements of log10 of LD50, one per entry
Tested on: mice (C57B1/6xDBA/2)F1 B6D2F1
Experimental Context: single injection into tail vein, probit analysis
Property Name: log10 of LD50 (log10 of the value in mg/kg)

INSERT INTO measurements (molecule, system_tested, property_name, measured) VALUES
  ('CC1O[C@@H](O[C@H]2/C=C/C=C/C=C/C=C/C=C/C=C/C=C/[C@H](C)[C@@H](O)[C@@H](C)[C@H](C)OC(=O)C[C@H](O)C[C@H](O)C[C@H](O)CC[C@@H](O)[C@H](O)C[C@]3(O)C[C@H](O)[C@@H](C)[C@H](C2)O3)[C@H](O)C(NC(=O)[C@@H](N)CCCCN)[C@@H]1O (stereo partly drawn) [Compound 51, N-L-Lysyl-Compound 1]', 'mice (C57B1/6xDBA/2)F1 B6D2F1', 'log10 of LD50', 0.72),
  ('CC1C=CC=CC=CC=CC=CC=CC=CC(OC2OC(C)C(O)C(N)C2O)CC2OC(O)(CC(O)C(O)CCC(O)CC(O)CC(O)CC(=O)OC(C)C(C)C1O)CC(O)C2C(=O)NCCCN(C)C (centres unmarked) [Compound 11, S44HP DMAP Amide]', 'mice (C57B1/6xDBA/2)F1 B6D2F1', 'log10 of LD50', 1.21),
  ('CC1C=CC=CC=CC=CC=CC=CC=CC(OC2OC(C)C(O)C(N)C2O)CC2OC(O)(CC(O)CCCC(O)CC(O)CC(O)CC(=O)OC(C)C(C)C1O)CC(O)C2C(=O)NCCN(C)C.NC(CCC(=O)O)C(=O)O (centres unmarked) [Compound 27]', 'mice (C57B1/6xDBA/2)F1 B6D2F1', 'log10 of LD50', 1.31),
  ('CC1O[C@@H](O[C@H]2/C=C/C=C/C=C/C=C/C=C/C=C/C=C/[C@H](C)[C@@H](O)[C@@H](C)[C@H](C)OC(=O)C[C@H](O)C[C@H](O)C[C@H](O)CC[C@@H](O)[C@H](O)C[C@]3(O)C[C@H](O)[C@@H](C(=O)NCCN(C)C)[C@H](C2)O3)[C@H](O)C(NCC2(O)OC[C@@H](O)[C@@H](O)[C@@H]2O)[C@@H]1O.Cl (some centres unmarked) [Compound 41]', 'mice (C57B1/6xDBA/2)F1 B6D2F1', 'log10 of LD50', 1.59),
  ('C[C@@H]1[C@H](O)[C@@H](C)/C=C/C=C/C=C/C=C/C=C/C=C/C=C/[C@H](O[C@@H]2O[C@H](C)[C@@H](O)[C@H](N)[C@@H]2O)C[C@@H]2O[C@](O)(C[C@@H](O)[C@H](O)CC[C@@H](O)C[C@@H](O)C[C@@H](O)CC(=O)O[C@H]1C)C[C@H](O)[C@H]2C(=O)O [Compound S44HP, reference compound]', 'mice (C57B1/6xDBA/2)F1 B6D2F1', 'log10 of LD50', 0.31),
  ('CC1O[C@@H](O[C@H]2/C=C/C=C/C=C/C=C/C=C/C=C/C=C/[C@H](C)[C@@H](O)[C@@H](C)[C@H](C)OC(=O)C[C@H](O)C[C@H](O)C[C@H](O)CC[C@@H](O)[C@H](O)C[C@]3(O)C[C@H](O)[C@@H](C(=O)NCCN(C)C)[C@H](C2)O3)[C@H](O)C(N)[C@@H]1O (some centres unmarked) [Compound 48]', 'mice (C57B1/6xDBA/2)F1 B6D2F1', 'log10 of LD50', 1.51),
  ('CC1C=CC=CC=CC=CC=CC=CC=CC(OC2OC(C)C(O)C(N)C2O)CC2OC(O)(CC(O)C(O)CCC(O)CC(O)CC(O)CC(=O)OC(C)C(C)C1O)CC(O)C2C (centres unmarked) [Compound 1]', 'mice (C57B1/6xDBA/2)F1 B6D2F1', 'log10 of LD50', 1.19),
  ('CC1C=CC=CC=CC=CC=CC=CC=CC(OC2OC(C)C(O)C(N)C2O)CC2OC(O)(CC(O)CC(O)CC(O)CC(O)CC(O)CC(=O)OC(C)C(C)C1O)CC(O)C2C.NC(CCC(=O)O)C(=O)O (centres unmarked) [Compound 26]', 'mice (C57B1/6xDBA/2)F1 B6D2F1', 'log10 of LD50', 1.70);
